# Measured Target: MIF (Homo sapiens, UniProt P14174)
# Assay: FID assay with 6d as fluorescent indicator
Measured Quantity: EC50 (nM)
Number in nM, nothing else.

Problem: Supply reported EC50 belonging to this compound: COc1ccc(N2Cc3ccc(O)cc3OC2=O)cc1OC [Compound 8, reference compound]
Result: 386

---

# Measured Target: MIF (Homo sapiens, UniProt P14174)
# Sequence (P14174 2-115 limits assumed): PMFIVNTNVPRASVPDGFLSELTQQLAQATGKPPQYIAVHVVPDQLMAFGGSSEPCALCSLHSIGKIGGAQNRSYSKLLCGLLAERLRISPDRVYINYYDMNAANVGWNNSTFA
Measured Quantity: pIC50
// pIC50 is dimensionless: -log10 of concentration (M)

Problem: Supply reported pIC50 belonging to this compound: O=C(O)c1ccc(-c2ccc(-c3cc4ccc(O)cc4oc3=O)cc2)cc1 [Compound 7]
Result: 7.15

Taken from paper PMC7586407.
